test-details: PHH natural infection assay, cytotoxicity (Cell Counting Kit-8)
Type: cell-based
condition-info: human; HBV-infected PHH, CCK8
The threshold is 6 µM. Values of CC50 at 144 h beneath it are tagged yes; values meeting or exceeding it are tagged no.

compound | assigned-label
CC(c1ccc(C(=O)NC23CC(c4nc5ccc(Cl)cc5s4)(C2)C3)o1)S(C)(=O)=O (stereo not shown) | no
CS(=O)(=O)C1(c2noc(C(=O)NC34CC(c5nc6ccc(Cl)cc6s5)(C3)C4)n2)CC1 | yes
CC(C)(c1cc(C(=O)NC23CC(c4nc5ccc(Cl)cc5s4)(C2)C3)sn1)S(C)(=O)=O | no
CS(=O)(=O)C1(c2ccc(C(=O)NC34CC(c5nc6cc(Cl)ccc6s5)(C3)C4)o2)CC1 | no
CS(=O)(=O)C(Cl)c1ccc(C(=O)NC23CC(c4nc5cc(Cl)ccc5s4)(C2)C3)o1 (stereo not shown) | no
CS(=O)(=O)C1(c2ccn(C(=O)NC34CC(c5nc6cc(Br)ccc6s5)(C3)C4)n2)CC1 | yes
CC(n1ccc(C(=O)NC23CC(c4nc5ccc(Cl)cc5s4)(C2)C3)n1)S(C)(=O)=O (stereo not shown) | no
CS(=O)(=O)C1(c2ccc(C(=O)NC34CC(c5nc6ccc(C#N)cc6s5)(C3)C4)o2)CC1 | no
CCC(c1ccc(C(=O)NC23CC(c4nc5cc(Cl)ccc5s4)(C2)C3)o1)S(C)(=O)=O (stereo not shown) | no
CS(=O)(=O)C1(c2nsc(C(=O)NC34CC(c5nc6ccc(Br)cc6s5)(C3)C4)n2)CC1 | yes
CS(=O)(=O)C1(c2ncc(C(=O)NC34CC(c5nc6ccc(Cl)cc6s5)(C3)C4)o2)CC1 | no
CS(=O)(=O)C1(c2ccn(C(=O)NC34CC(c5nc6ccc(Cl)cc6s5)(C3)C4)n2)CC1 | yes
CS(=O)(=O)C1(c2ccc(C(=O)NC34CC(c5nc6ccc(Cl)cc6s5)(C3)C4)o2)CC1 | no
C[S+]([O-])C(C)(C)c1ccc(C(=O)NC23CC(c4nc5cc(Cl)ccc5s4)(C2)C3)o1 (stereo not shown) | yes
CC(C)(c1ccc(C(=O)NC23CC(c4nc5cc(Cl)ccc5s4)(C2)C3)o1)S(C)(=O)=O | no
C[C@@H](c1ccc(C(=O)NC23CC(c4nc5ccc(Cl)cc5s4)(C2)C3)o1)S(C)(=O)=O (single isomer, unassigned) [Example 56b] | no

----------
test-details: PHH natural infection assay, cytotoxicity (Cell Counting Kit-8)
Format: cell-based
condition-info: human; HBV-infected PHH, CCK8
Experimental: Detailed procedures regarding primary human hepatocyte (PHH) HBV natural infection assay are described as below. […] HBsAg and HBeAg were detected using alphalisa method using their specific antibodies. For HBV DNA detection, HBV DNA Quantitative Fluorescence Diagnostic Kit (Sansure Biotech Inc.) was used following the manufacture's protocol. Cytotoxicity was determined using Cell Counting Kit-8 (CCK8, Dojindo Molecular Technologies, Inc.).
The threshold is 6 µM. Values of CC50 at 144 h beneath it are tagged Satisfied; values meeting or exceeding it are tagged Not satisfied.

compound | assigned-label
C[C@H](c1ccc(C(=O)NC23CC(c4nc5ccc(Cl)cc5s4)(C2)C3)o1)S(C)(=O)=O (single isomer, unassigned) [Example 56a] | Not satisfied
CC(c1ccc(C(=O)NC23CC(c4nc5cc(Cl)ccc5s4)(C2)C3)o1)S(C)(=O)=O (stereo not drawn) | Not satisfied
CCC(c1ccc(C(=O)NC23CC(c4nc5ccc(Cl)cc5s4)(C2)C3)o1)S(C)(=O)=O (stereo not drawn) | Not satisfied
CC(c1nsc(C(=O)NC23CC(c4nc5ccc(Cl)cc5s4)(C2)C3)n1)S(C)(=O)=O (stereo not drawn) | Satisfied
CS(=O)(=O)C1(c2ccc(C(=O)NC34CC(c5nc6ccc(F)cc6s5)(C3)C4)o2)CC1 | Not satisfied
CC(C)(c1ccc(C(=O)NC23CC(c4nc5ccc(Cl)cc5s4)(C2)C3)o1)S(C)(=O)=O | Satisfied
CS(=O)(=O)C1(c2nsc(C(=O)NC34CC(c5nc6cc(Br)ccc6s5)(C3)C4)n2)CC1 | Not satisfied
CS(=O)(=O)C(Br)c1ccc(C(=O)NC23CC(c4nc5cc(Cl)ccc5s4)(C2)C3)o1 (stereo not drawn) | Not satisfied
CS(=O)(=O)Cc1ccc(C(=O)NC23CC(c4nc5ccc(Cl)cc5s4)(C2)C3)o1 | Not satisfied
CC(C)(c1ncc(C(=O)NC23CC(c4nc5ccc(Cl)cc5s4)(C2)C3)o1)S(C)(=O)=O | Not satisfied
C#Cc1ccc2nc(C34CC(NC(=O)c5ccc(C6(S(C)(=O)=O)CC6)o5)(C3)C4)sc2c1 | Not satisfied
CC(C)(c1ccn(C(=O)NC23CC(c4nc5ccc(Cl)cc5s4)(C2)C3)n1)S(C)(=O)=O | Satisfied
CS(=O)(=O)C1(c2nc(C(=O)NC34CC(c5nc6ccc(Br)cc6s5)(C3)C4)no2)CC1 | Not satisfied
CC(C)(c1ccn(C(=O)NC23CC(c4nc5cc(Br)ccc5s4)(C2)C3)n1)S(C)(=O)=O | Satisfied
CC(C)(c1nsc(C(=O)NC23CC(c4nc5ccc(Cl)cc5s4)(C2)C3)n1)S(C)(=O)=O | Satisfied

----------
test-details: PHH natural infection assay, cytotoxicity (Cell Counting Kit-8)
Assay type: cell-based
condition-info: human; HBV-infected PHH, CCK8
The compounds listed here are annotated with their CC50 at 144 h.

compound | CC50 at 144 h
CC(c1ccn(C(=O)NC23CC(c4nc5ccc(Cl)cc5s4)(C2)C3)n1)S(C)(=O)=O (stereo not drawn) [Example 58] | 6.06 µM
CS(=O)(=O)C1(c2ccc(C(=O)NC34CC(c5nc6ccc(Br)cc6s5)(C3)C4)o2)CC1 [Example 2] | 5.85 µM
CS(=O)(=O)C1(c2ccc(C(=O)NC34CC(c5nc6cc(Br)ccc6s5)(C3)C4)o2)CC1 [Example 6] | 6.03 µM
